# assay_protocol: Orientative toxicity after oral treatment in male mice, seven days observation
# Type: in vivo
# applied_conditions: mouse, in vivo, po, observed for seven days
readout_name: LD50 at 168 h

Give its LD50 at 168 h value. Item: C[C@H](CS)C(=O)N1CCC[C@H]1C(=O)O [Captopril, captopril, reference compound]
> 800 mg/kg
